- Measured on: T1, EsCas13d, nuclease-dead (Eubacterium siraeum, UniProt B0MS50, R295A;H300A;R849A;H854A)
- T1 sequence: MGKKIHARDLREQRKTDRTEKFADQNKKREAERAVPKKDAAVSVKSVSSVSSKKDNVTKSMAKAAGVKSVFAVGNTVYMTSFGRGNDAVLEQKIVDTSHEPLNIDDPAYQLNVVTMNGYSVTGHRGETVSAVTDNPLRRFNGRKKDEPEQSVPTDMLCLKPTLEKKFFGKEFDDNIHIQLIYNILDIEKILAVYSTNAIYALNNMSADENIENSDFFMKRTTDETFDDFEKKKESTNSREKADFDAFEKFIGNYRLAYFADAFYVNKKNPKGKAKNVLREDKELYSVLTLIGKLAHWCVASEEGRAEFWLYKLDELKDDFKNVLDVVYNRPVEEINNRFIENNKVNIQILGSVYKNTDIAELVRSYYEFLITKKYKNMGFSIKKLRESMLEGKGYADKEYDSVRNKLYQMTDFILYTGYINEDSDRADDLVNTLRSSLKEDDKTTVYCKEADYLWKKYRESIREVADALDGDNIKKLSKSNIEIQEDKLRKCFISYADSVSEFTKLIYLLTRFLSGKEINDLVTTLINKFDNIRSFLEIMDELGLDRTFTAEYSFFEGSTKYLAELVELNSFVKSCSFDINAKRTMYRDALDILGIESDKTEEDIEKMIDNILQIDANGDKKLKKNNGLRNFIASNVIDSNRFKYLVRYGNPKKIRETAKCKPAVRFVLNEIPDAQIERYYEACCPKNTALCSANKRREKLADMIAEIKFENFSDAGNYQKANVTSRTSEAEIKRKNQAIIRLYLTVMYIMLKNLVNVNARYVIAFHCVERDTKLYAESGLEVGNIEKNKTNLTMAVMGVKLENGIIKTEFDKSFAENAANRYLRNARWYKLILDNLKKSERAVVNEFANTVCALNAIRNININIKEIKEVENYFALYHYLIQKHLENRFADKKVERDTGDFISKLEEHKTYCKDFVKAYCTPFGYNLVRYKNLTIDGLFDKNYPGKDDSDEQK
- Protocol summary: crRNA (strand 1, pre-loaded); Mg2+; 40 mM Tris-HCl pH 7.5, 150 mM NaCl, 6 mM MgCl2, 1 mM DTT, 0.1% Tween-20, 0.2 mg/ml BSA; 25 C; 10 min per concentration, then washed
- Assay context: tags: His6-TwinStrep-SUMO cleaved; N-terminal SNAP kept (SNAP-Surface 488); label: 3' end held by stalled T7 RNA polymerase
Reported property: Kd
Kindly report the value followed by its unit.

# annotated cases, reported Kd shown
>  <Binder>
target 2 MT 5'PFS UGA 3'PFS CUA (mixed) RNA 1: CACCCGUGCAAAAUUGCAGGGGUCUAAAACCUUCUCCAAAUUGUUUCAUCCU RNA 2: GGGAAUGGAUCCACAUCUACGAAUUCUGAAGGAUGAAACAAUUUGGAGAAGCUAAGAUCGGAAGAGCACACGU

>  <Result>
8.7 nM

$$$$
>  <Binder>
target 2 MT 5'PFS AGU 3'PFS AGU (mixed) RNA 1: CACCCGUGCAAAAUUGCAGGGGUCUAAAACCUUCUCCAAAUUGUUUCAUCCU RNA 2: GGGAAUGGAUCCACAUCUACGAAUUCAGUAGGAUGAAACAAUUUGGAGAAGAGUAGAUCGGAAGAGCACACGU

>  <Result>
6.8 nM

$$$$
>  <Binder>
target 1 C2G,U3G (mixed) RNA 1: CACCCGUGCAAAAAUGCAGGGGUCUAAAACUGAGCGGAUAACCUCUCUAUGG RNA 2: GGGAAUGGAUCCACAUCUACGAAUUCGUACCAUAGAGAGGUUAUCCGCGGACCGAGAUCGGAAGAGCACACGU

>  <Result>
4.43 nM

$$$$
>  <Binder>
target 3 insU 3' of 3,insG 3' of 1 (mixed) RNA 1: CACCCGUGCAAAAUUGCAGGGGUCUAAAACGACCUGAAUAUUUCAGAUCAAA RNA 2: GGGAAUGGAUCCACAUCUACGAAUUCGUUUUUGAUCUGAAAUAUUCAGGUUCGUGCAGAUCGGAAGAGCACACGU

>  <Result>
37.4 nM

$$$$

Each binder below has a reported value. Please supply its Kd.
1. target 1 MT 5'PFS UCA 3'PFS CAU (mixed) RNA 1: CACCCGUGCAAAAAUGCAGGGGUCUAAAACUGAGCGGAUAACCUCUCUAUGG RNA 2: GGGAAUGGAUCCACAUCUACGAAUUCUCACCAUAGAGAGGUUAUCCGCUCACAUAGAUCGGAAGAGCACACGU
2. target 1 insG 3' of 7,insC 3' of 1 (mixed) RNA 1: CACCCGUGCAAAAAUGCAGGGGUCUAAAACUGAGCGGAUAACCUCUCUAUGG RNA 2: GGGAAUGGAUCCACAUCUACGAAUUCGUACCAUAGAGAGGUUAUCGCGCUCACCCGAGAUCGGAAGAGCACACGU
3. target 1 A9U,G15A (mixed) RNA 1: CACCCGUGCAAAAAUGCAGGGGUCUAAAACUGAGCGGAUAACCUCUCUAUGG RNA 2: GGGAAUGGAUCCACAUCUACGAAUUCGUACCAUAGAAAGGUUUUCCGCUCACCGAGAUCGGAAGAGCACACGU
4. target 1 insC 3' of 20,insA 3' of 15 (mixed) RNA 1: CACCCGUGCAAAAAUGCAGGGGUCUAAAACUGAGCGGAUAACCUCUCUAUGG RNA 2: GGGAAUGGAUCCACAUCUACGAAUUCGUACCACUAGAGAAGGUUAUCCGCUCACCGAGAUCGGAAGAGCACACGU

[A]
1. 14.7 nM
2. 7.6 nM
3. 19.1 nM
4. 12.2 nM
